Listing of entries alongside the reported protein stability index.
B1: ZNF649 (parent)
chain: LTEHKRIHTGKKPHVCSLCGKAFY

variants of: B1; assay: protein stability index of a GFP-peptide fusion (GPS, HEK-293T) (PSI 1-6); higher = more stable; settings: c terminus: a fixed tail appended;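 note: lentivirally expressed fusions sorted by FACS into six bins by GFP to DsRed ratio, PSI derived from sequencing read proportions per bin multiplied by bin number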

Study these solved cases before continuing.
[
  {
    "Mutation spec": "S17E",
    "protein stability index": 2.84
  },
  {
    "Mutation spec": "K5I",
    "protein stability index": 3
  }
]

Prompt line: Returns the measured protein stability index for the input variant. Input: `V15W`
Response line: 1.83

Prompt line: // repeat for `E3W` and report
Response line: 1.71

Prompt line: Subsequent entry: `S17H`
Response line: 2.01

Prompt line: Note, next up: `K12W`
Response line: 2.27

Prompt line: Let us now turn to `F23N`
Response line: 2.4
